Reference for the values: ChEMBL document CHEMBL1177673

test system: Human immunodeficiency virus 1; test: Antiviral activity against HIV1 3B infected in human MT4 cells assessed as inhibition of virus-induced cytopathic effect by MTT assay; assay type: functional; conditions: Human immunodeficiency virus 1, 3B
measuredProperty: EC50 (µM)
# unit: µM | format: bare number

Ask | Give the measured EC50 of `Oc1cc(-c2ccc3cc(O)c(O)c(O)c3c2)cc(O)c1O` .
Reply | 1

---

target: Human immunodeficiency virus type 1 integrase (Human immunodeficiency virus 1, UniProt Q7ZJM1)
Sequence (Q7ZJM1 whole entry): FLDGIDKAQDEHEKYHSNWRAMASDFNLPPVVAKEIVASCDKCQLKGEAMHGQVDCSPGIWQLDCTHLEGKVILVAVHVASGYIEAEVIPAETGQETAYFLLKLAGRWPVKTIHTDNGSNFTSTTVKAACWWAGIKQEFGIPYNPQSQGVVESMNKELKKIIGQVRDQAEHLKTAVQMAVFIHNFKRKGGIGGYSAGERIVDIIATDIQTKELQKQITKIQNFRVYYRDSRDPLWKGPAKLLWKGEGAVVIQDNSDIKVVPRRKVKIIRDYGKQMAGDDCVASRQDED
measuredProperty: IC50 (µM)
# unit: µM | format: bare number

Ask | Bench note: what IC50 did `Oc1ccc2cc(-c3ccccc3C(F)(F)F)ccc2c1O` show?
Reply | 6

Ask | GET /values?readout=IC50&item= `Oc1ccc2cc(-c3cccc(C(F)(F)F)c3)ccc2c1O`
Reply | 10

Ask | For the compound `Oc1ccc2cc(-c3ccc(F)cc3)ccc2c1O` , what IC50 is on record?
Reply | 8
